# assayed-system: E1E2 of HCV isolate UKN4.11.1 (genotype 4) (Hepatitis C virus genotype 4)
# assay-explanation: cell-based or functional assay
reported-endpoint: IC50, HCVpp neutralization (µg/mL)
Your answer is read as µg/mL, so omit the unit and give the number.

>>> result("AT13-021 (antibody, V domains shown) VH: QVQLVQSGAEVKKPGSSVKVSCKASGGTFNTHAFSWVRQAPGEGLEWMGGISPMSGTPNYAQKFQGRLTITADESTSTGYMELRSLTSEDTAVYYCARELIGYCTGGNCYSFGDFWGQGTLITVSS VL: EIVMTQSPATLSVSPGERATLSCRASQSVSSHLAWYQHKPGQAPRLLISGASTRAVGVPARFSGSGSGTEFTLTISSLQSEDFAVYYCHQYNTWPRGFGQGTKVDFKR")
0.94

response.value for AT12-009 (antibody, V domains shown) VH: SSVRVSCKASGDTFKTHAISWVRQAPGQGLEWVGGTVRQAPGDGLELLGGFVPILAPANDAQKFQGRVTITADGSTGPVYMDLSTLTSEDTAMYYCVTSLSEPIPRSCRGGRCYSGPFDAFGVWGQGTMVTVSS VL: ETMLTQSPVTLSVSPGERATLSCRASQSIGTNLAWYQQKPGQAPRLLIHGASTRATGVPVSFSGSGSGTEFTLTISSLQSEDFAVYYCQQYNNWPLTFGGGTKVDFKR (field: IC50, HCVpp neutralization) = 0.19
